pIC50: −log10 of the molar value.
Record: compiled pIC50 on Tyrosine-protein kinase JAK1 (Homo sapiens) from multiple reports.

molecule=CCOC(=O)Cn1cc(Nc2ncc3ccn(C[C@H]4CC[C@H](N)CC4)c3n2)cn1 observed="> 7.00"
molecule=CC(=O)SCC(=O)Nc1cccc(-c2cnc3ccccc3n2)c1 observed="< 5.00"
molecule=CNC(=O)c1ncc(Nc2nccc(-c3ccc(NC(=O)[C@@H]4CC4(F)F)cc3)n2)cc1C observed=8.10
molecule=C[C@@H]1CCN(C(=O)CC#N)C[C@@H]1Nc1c(C(=O)OC(C)(C)C)cnc2[nH]ccc12 observed="6.00 to 7.00"
molecule=Cn1cc(-c2cc3nccn3c(-c3cnn(C4(CC#N)CN(C(=O)C5(C(F)(F)F)CC5)C4)c3)n2)cn1 observed="7.00 to 8.00"
molecule="N#CC1CC12CCN(n1cnc3cnc4[nH]ccc4c31)CC2 (stereo not shown)" observed=8.75

stdin: GET pIC50 | system: Tyrosine-protein kinase JAK1 (Homo sapiens) | item: `Cc1cn(-c2cc(NC(=O)c3ccc(C)c(-c4ccc5c(c4)[nH]c4ncncc45)c3)cc(C(F)(F)F)c2)cn1`
stdout: ≥ 6.30

stdin: Enter recorded pIC50 with Tyrosine-protein kinase JAK1 (Homo sapiens) for `Cn1cc(-c2cc3nccn3c(-c3cnn([C@H](CC=C(F)F)C4CC4)c3)n2)cn1` here.
stdout: 7.00 to 8.00

stdin: With Tyrosine-protein kinase JAK1 (Homo sapiens) as the test system, provide measured pIC50 for this molecule: `C[C@@H](O)c1nc2cnc3[nH]ccc3c2n1N1CCC(C(C)(C)C#N)CC1`
stdout: 8.29

stdin: Would you please give the reported pIC50 of NC(=O)c1cnc(Nc2ccc3c(c2)NC[C@H](O)CO3)nc1NC1CC1F (stereo partly shown) with Tyrosine-protein kinase JAK1 (Homo sapiens)?
stdout: > 8.00

stdin: State, for Tyrosine-protein kinase JAK1 (Homo sapiens), measured pIC50 of the molecule listed here: `[2H]C([2H])([2H])N(c1ncnc2[nH]ccc12)C1CC2(C1)CN(C(=O)c1ccc(C#N)c(F)c1F)C2`
stdout: ≥ 8.00

stdin: For Tyrosine-protein kinase JAK1 (Homo sapiens), give the measured pIC50 of the entry `O=C1Nc2ccc(cc2)OCc2cc(ccc2F)Nc2nccc(n2)-c2ccc1cc2O`
stdout: 6.00 to 7.00

stdin: Provide Tyrosine-protein kinase JAK1 (Homo sapiens) pIC50 reading for `Cc1ccsc1C(=O)N1CC2(CC(N(C)c3ncnc4[nH]ccc34)C2)C1` .
stdout: 7.00 to 8.00

stdin: Given `C[C@@H](O)c1nc2cnc3ccsc3c2n1[C@H]1CC[C@@H](CC#N)C1.O=C(O)C(F)(F)F` , report its pIC50 on Tyrosine-protein kinase JAK1 (Homo sapiens).
stdout: ≥ 6.00

stdin: Look up and report measured pIC50 (Tyrosine-protein kinase JAK1 (Homo sapiens)) for the following molecule: `CCCS(=O)(=O)NC12CC(n3cnc4cnc5[nH]ccc5c43)(C1)C2`
stdout: 8.23

stdin: # lookup: Tyrosine-protein kinase JAK1 (Homo sapiens) pIC50, key = `CCCN(Cc1cc(C)ccc1N(C)S(C)(=O)=O)c1nc(-c2cc(F)c(O)cc2CC)cc2[nH]ncc12`
stdout: 7.26

---

Collected IC50 for Tyrosine-protein kinase JAK1 (Homo sapiens, UniProt P23458) across several studies; molecules listed below.

Recorded results for 5 molecules are shown here.
molecule=CC(C)COc1ccc2cc1COc1ccc(cc1)NC(=O)c1ccc(c([N+](=O)[O-])c1)-c1ccnc(n1)N2 observed="> 10000 nM"
molecule=CCS(=O)(=O)N1CC(CC#N)(n2cc(-c3nc(Nc4ccc(S(C)(=O)=O)cc4)nc4sccc34)cn2)C1 observed="50 to 500 nM"
molecule=O=C(NCC(F)(F)F)Nc1cccc2c(-c3ccnc(NC(=O)C4CC4)c3)cn(C(=O)NCC(F)(F)F)c12 observed="> 1000 nM"
molecule=CCOC(=O)Cn1cc(Nc2ncc3ccn(C[C@H]4CC[C@H](OC)CC4)c3n2)cn1 observed="100 to 1000 nM"
molecule=C[C@]1(O)CC[C@@H](Nc2c(C(N)=O)cnn3cc(-c4ccc(C#N)cc4)cc23)CC1 observed="6.1 nM"

stdin: # return recorded IC50 for entry `N#CCC1(n2cc(-c3ncnc4[nH]ccc34)cn2)CN(C2CCN(C(=O)c3cc(Cl)cc(C(F)(F)F)n3)CC2)C1`
stdout: ≤ 5 nM

stdin: Provide measured IC50 value, entry: `Cn1cc(-c2cc3nccn3c(-c3cnn(C4(CC#N)CN(CC(F)(F)F)C4)c3)n2)cn1`
stdout: 100 to 1000 nM

---

pIC50: −log10 of the molar value.
pIC50 for Tyrosine-protein kinase JAK1 (Homo sapiens), merged from several publications.

The cases that follow already have their pIC50 on record.
compound=Cn1cc(-c2cc3nccn3c(-c3cnn(C4CCCC4)c3)n2)cn1 subjectoftest="Tyrosine-protein kinase JAK1 (Homo sapiens)" measure=pIC50 observed="< 6.00"
compound="CC(C)(C)NC(=O)c1cc2nccn2c(-c2cnn(C(CC#N)C3CC3)c2)n1 (centres unmarked)" subjectoftest="Tyrosine-protein kinase JAK1 (Homo sapiens)" measure=pIC50 observed="< 6.00"
compound="Nc1cc2ccc1-c1ccnc(n1)Nc1ccc(OCC3CCOC3)c(c1)COc1ccc(cc1)NC2=O (centres unmarked)" subjectoftest="Tyrosine-protein kinase JAK1 (Homo sapiens)" measure=pIC50 observed="6.00 to 7.00"
compound=[2H]C1([2H])CN(C(=O)c2ccnc(C(F)(F)F)c2F)CC([2H])([2H])C1([2H])N1CC(CC#N)(n2cc(-c3ncnc4[nH]ccc34)cn2)C1 subjectoftest="Tyrosine-protein kinase JAK1 (Homo sapiens)" measure=pIC50 observed="≥ 8.30"

stdin: Please respond with reported pIC50 (system Tyrosine-protein kinase JAK1 (Homo sapiens)) for `N#CCC1(n2cc(-c3ncnc4[nH]ccc34)cn2)CN(C2CCN(C(=O)c3ccc(-c4ccncc4)c(F)c3)CC2)C1` .
stdout: ≥ 8.30

stdin: Provide measured pIC50 on Tyrosine-protein kinase JAK1 (Homo sapiens) for `C#CCCNc1nc(Nc2ccc3c(c2)NC[C@H](O)CO3)ncc1C(N)=O` please.
stdout: > 8.00

stdin: Enter pIC50 (test system Tyrosine-protein kinase JAK1 (Homo sapiens)) for `CN(c1ncnc2[nH]ccc12)C1CCC2(CC1)CCN(C(=O)C1(C#N)CC1)CC2`
stdout: 6.00 to 7.00

stdin: Please respond with reported pIC50 (system Tyrosine-protein kinase JAK1 (Homo sapiens)) for `Cc1ccncc1C(=O)Nc1cccc2c(-c3ccnc(NC(=O)C4CC4)c3)c[nH]c12` .
stdout: > 7.00

---

Please find below IC50 measurements for Tyrosine-protein kinase JAK1 (Homo sapiens, UniProt P23458), combined from several publications.

# annotated cases, reported IC50 shown
compound=Cc1cc(Nc2ncc(C)c(N3CC(CC#N)(NC(=O)Cc4cccnc4)C3)n2)sn1 measure=IC50 observed="< 100 nM"
compound=CCS(=O)(=O)N1CC(CC#N)(n2cc(-c3nc(Nc4cnn(C5CN(CC6CC6)C5)c4)nc4ccsc34)cn2)C1 measure=IC50 observed="< 50 nM"
compound="CN1CCC(c2ccc(-c3cc4nccn4c(-c4cnn(C(CC#N)C5CCCC5)c4)n3)cc2)CC1 (single isomer, unassigned)" measure=IC50 observed="10 to 100 nM"
compound=Cc1cnc(Nc2ccc(OCCN3CCCC3)cc2)nc1NCc1ccco1 measure=IC50 observed="50 nM"

stdin: Please list IC50 recorded for the compound `O=C(NCCC(F)(F)F)c1noc2c1CN(c1ncnc3[nH]ccc13)CC21CC1`
stdout: < 100 nM

stdin: Could you please provide reported IC50 for `O=C(NCCCC1(O)CC1)c1noc2c1CN(c1ncnc3[nH]ccc13)CC2` ? Thanks!
stdout: 100 to 500 nM

stdin: Name the recorded IC50 of the item `Cc1ccc(N(C)S(C)(=O)=O)c(CNc2nc(-c3cc(F)c(O)cc3CC(F)(F)F)cc3[nH]nc(C(N)=O)c23)c1` in your answer.
stdout: 4.7 nM

---

pIC50: −log10 of the molar value.
Let's look at some pIC50 data for Tyrosine-protein kinase JAK1 (Homo sapiens) that I collected from the literature.

compound=CN(c1ncnc2[nH]ccc12)[C@H]1C[C@@H]2CN(C(=O)Nc3nc(O)ns3)C[C@@H]2C1 measure=pIC50 observed=6.77
compound=O=C1NCCOCc2cccc(c2)Nc2nc(ncc2F)Nc2cc(cnc2F)-c2ccc1cc2 measure=pIC50 observed="7.00 to 7.96"
compound=CCOC(=O)Cn1cc(Nc2ncc3ccn(C[C@H]4CC[C@H](O)CC4)c3n2)cn1 measure=pIC50 observed="> 7.00"
compound=O=C(NCCC(F)(F)F)c1nn(C2CCC2)c2c1CN(c1ncnc3[nH]ccc13)CC2 measure=pIC50 observed="6.30 to 7.00"
compound=CC(C)NC(=O)c1ccc(N2CC(CC#N)(n3cc(-c4ccnc5[nH]ccc45)cn3)C2)c(F)c1 measure=pIC50 observed="> 8.00"
compound=CNC(=O)c1n[nH]c2cc(-c3cc(F)c(O)cc3C3CC3)nc(NCc3cccnc3N(C)S(C)(=O)=O)c12 measure=pIC50 observed=7.11

stdin: Write down pIC50 measured for item `NC(=O)c1cnc2[nH]ccc2c1NN1C2CCC1COC2`
stdout: 7.28

stdin: Consider the compound Cc1cc(Nc2ncc(C)c(N3CC(CC#N)(NC(C)c4cccc(F)c4)C3)n2)sn1 (stereo not shown) and give its recorded pIC50.
stdout: > 7.00

stdin: Please report pIC50 for the following compound: `Cc1ncc(-c2cc3nccn3c(-c3cnn(C4(CC#N)CN(S(=O)(=O)C(F)(F)F)C4)c3)n2)s1`
stdout: 7.00 to 8.00
